# Procedure details: Pharmacokinetics and safety in subjects with renal impairment / ESRD (VER001-3, -11, -13)
# Conditions used: human, plasma, intravenous, 1000 mg, t1/2, Normal Renal Function (N = 9), VER001-13, single dose 1000 mg
Readout: half-life (days)
Kindly provide the numeric value in days only, without the unit symbol.

compound CN[C@H]1C(=O)N[C@@H]2Cc3ccc(cc3)Oc3cc4cc(c3O[C@@H]3O[C@H](C(=O)O)[C@@H](O)[C@H](O)[C@H]3NC(=O)CCCCCCCCC(C)C)Oc3ccc(cc3Cl)[C@@H](O)[C@@H]3NC(=O)[C@H](NC(=O)[C@@H]4NC(=O)[C@@H](NC2=O)c2cc(cc(O)c2Cl)Oc2cc1ccc2O)c1ccc(O)c(c1)-c1c(O[C@H]2O[C@H](CO)[C@@H](O)[C@H](O)[C@@H]2O)cc(O)cc1[C@@H](C(=O)NCCCN(C)C)NC3=O [Dalbavancin] , half-life observed: 17.4

---

# Procedure details: clinical
# Conditions used: human, in vivo, 1120 mg, AUC0-day14
Readout: AUC
Record the result as number plus unit.

Recorded AUC (compound CN[C@H]1C(=O)N[C@@H]2Cc3ccc(cc3)Oc3cc4cc(c3O[C@@H]3O[C@H](C(=O)O)[C@@H](O)[C@H](O)[C@H]3NC(=O)CCCCCCCCC(C)C)Oc3ccc(cc3Cl)[C@@H](O)[C@@H]3NC(=O)[C@H](NC(=O)[C@@H]4NC(=O)[C@@H](NC2=O)c2cc(cc(O)c2Cl)Oc2cc1ccc2O)c1ccc(O)c(c1)-c1c(O[C@H]2O[C@H](CO)[C@@H](O)[C@H](O)[C@@H]2O)cc(O)cc1[C@@H](C(=O)NCCCN(C)C)NC3=O [Dalbavancin] ): 20200 µg·h/mL

---

# Procedure details: clinical
# Conditions used: human, in vivo, 1000 mg, Vss
Readout: Vd (L)
The response must be a number in L with no trailing unit.

Per the record, CN[C@H]1C(=O)N[C@@H]2Cc3ccc(cc3)Oc3cc4cc(c3O[C@@H]3O[C@H](C(=O)O)[C@@H](O)[C@H](O)[C@H]3NC(=O)CCCCCCCCC(C)C)Oc3ccc(cc3Cl)[C@@H](O)[C@@H]3NC(=O)[C@H](NC(=O)[C@@H]4NC(=O)[C@@H](NC2=O)c2cc(cc(O)c2Cl)Oc2cc1ccc2O)c1ccc(O)c(c1)-c1c(O[C@H]2O[C@H](CO)[C@@H](O)[C@H](O)[C@@H]2O)cc(O)cc1[C@@H](C(=O)NCCCN(C)C)NC3=O has Vd of 16.5

---

# Procedure details: clinical
# Conditions used: human, in vivo, 1000 mg, AUC0-inf
Readout: AUC(0-inf)

Quick note, AUC(0-inf) for CN[C@H]1C(=O)N[C@@H]2Cc3ccc(cc3)Oc3cc4cc(c3O[C@@H]3O[C@H](C(=O)O)[C@@H](O)[C@H](O)[C@H]3NC(=O)CCCCCCCCC(C)C)Oc3ccc(cc3Cl)[C@@H](O)[C@@H]3NC(=O)[C@H](NC(=O)[C@@H]4NC(=O)[C@@H](NC2=O)c2cc(cc(O)c2Cl)Oc2cc1ccc2O)c1ccc(O)c(c1)-c1c(O[C@H]2O[C@H](CO)[C@@H](O)[C@H](O)[C@@H]2O)cc(O)cc1[C@@H](C(=O)NCCCN(C)C)NC3=O landed at 27000 µg·h/mL

---

# Procedure details: clinical
# Conditions used: human, in vivo, 1000 mg, AUC0-day7
Readout: AUC (µg·h/mL)
Provide the reading as a plain figure in µg·h/mL.

AUC measured on CN[C@H]1C(=O)N[C@@H]2Cc3ccc(cc3)Oc3cc4cc(c3O[C@@H]3O[C@H](C(=O)O)[C@@H](O)[C@H](O)[C@H]3NC(=O)CCCCCCCCC(C)C)Oc3ccc(cc3Cl)[C@@H](O)[C@@H]3NC(=O)[C@H](NC(=O)[C@@H]4NC(=O)[C@@H](NC2=O)c2cc(cc(O)c2Cl)Oc2cc1ccc2O)c1ccc(O)c(c1)-c1c(O[C@H]2O[C@H](CO)[C@@H](O)[C@H](O)[C@@H]2O)cc(O)cc1[C@@H](C(=O)NCCCN(C)C)NC3=O = 9710

---

# Procedure details: clinical
# Conditions used: human, in vivo, CL
Readout: clearance (mL/min)
Write the answer as a number in mL/min, unit excluded.

clearance recorded for this compound, CN[C@H]1C(=O)N[C@@H]2Cc3ccc(cc3)Oc3cc4cc(c3O[C@@H]3O[C@H](C(=O)O)[C@@H](O)[C@H](O)[C@H]3NC(=O)CCCCCCCCC(C)C)Oc3ccc(cc3Cl)[C@@H](O)[C@@H]3NC(=O)[C@H](NC(=O)[C@@H]4NC(=O)[C@@H](NC2=O)c2cc(cc(O)c2Cl)Oc2cc1ccc2O)c1ccc(O)c(c1)-c1c(O[C@H]2O[C@H](CO)[C@@H](O)[C@H](O)[C@@H]2O)cc(O)cc1[C@@H](C(=O)NCCCN(C)C)NC3=O , is 0.777

---

# Procedure details: Pharmacokinetics and safety in subjects with renal impairment / ESRD (VER001-3, -11, -13)
# Conditions used: human, plasma, intravenous, 1120 mg, t1/2, Normal Renal Function (N = 3), VER001-2, single dose 1120 mg
Readout: half-life (h)
Please respond with the number in h and leave the unit unwritten.

get_value(item= CN[C@H]1C(=O)N[C@@H]2Cc3ccc(cc3)Oc3cc4cc(c3O[C@@H]3O[C@H](C(=O)O)[C@@H](O)[C@H](O)[C@H]3NC(=O)CCCCCCCCC(C)C)Oc3ccc(cc3Cl)[C@@H](O)[C@@H]3NC(=O)[C@H](NC(=O)[C@@H]4NC(=O)[C@@H](NC2=O)c2cc(cc(O)c2Cl)Oc2cc1ccc2O)c1ccc(O)c(c1)-c1c(O[C@H]2O[C@H](CO)[C@@H](O)[C@H](O)[C@@H]2O)cc(O)cc1[C@@H](C(=O)NCCCN(C)C)NC3=O [Dalbavancin] , readout=half-life) returns 149

---

# Procedure details: clinical
# Conditions used: human, in vivo, 500 mg, Cmax
Readout: Cmax (µg/mL)
Note: unit µg/mL is implicit; provide only the numeric part.

Lab note: CN[C@H]1C(=O)N[C@@H]2Cc3ccc(cc3)Oc3cc4cc(c3O[C@@H]3O[C@H](C(=O)O)[C@@H](O)[C@H](O)[C@H]3NC(=O)CCCCCCCCC(C)C)Oc3ccc(cc3Cl)[C@@H](O)[C@@H]3NC(=O)[C@H](NC(=O)[C@@H]4NC(=O)[C@@H](NC2=O)c2cc(cc(O)c2Cl)Oc2cc1ccc2O)c1ccc(O)c(c1)-c1c(O[C@H]2O[C@H](CO)[C@@H](O)[C@H](O)[C@@H]2O)cc(O)cc1[C@@H](C(=O)NCCCN(C)C)NC3=O gave Cmax of 137

---

# Procedure details: clinical
# Conditions used: human, in vivo, 1120 mg, AUC0-inf
Readout: AUC(0-inf) (µg·h/mL)
Give the value, in units of µg·h/mL, as a plain number.

Entry CN[C@H]1C(=O)N[C@@H]2Cc3ccc(cc3)Oc3cc4cc(c3O[C@@H]3O[C@H](C(=O)O)[C@@H](O)[C@H](O)[C@H]3NC(=O)CCCCCCCCC(C)C)Oc3ccc(cc3Cl)[C@@H](O)[C@@H]3NC(=O)[C@H](NC(=O)[C@@H]4NC(=O)[C@@H](NC2=O)c2cc(cc(O)c2Cl)Oc2cc1ccc2O)c1ccc(O)c(c1)-c1c(O[C@H]2O[C@H](CO)[C@@H](O)[C@H](O)[C@@H]2O)cc(O)cc1[C@@H](C(=O)NCCCN(C)C)NC3=O ; AUC(0-inf) = 25800

---

# Procedure details: clinical
# Conditions used: human, in vivo, 500 mg, AUC7
Readout: AUC
Lab note: write values as number then unit, every time.

Record CN[C@H]1C(=O)N[C@@H]2Cc3ccc(cc3)Oc3cc4cc(c3O[C@@H]3O[C@H](C(=O)O)[C@@H](O)[C@H](O)[C@H]3NC(=O)CCCCCCCCC(C)C)Oc3ccc(cc3Cl)[C@@H](O)[C@@H]3NC(=O)[C@H](NC(=O)[C@@H]4NC(=O)[C@@H](NC2=O)c2cc(cc(O)c2Cl)Oc2cc1ccc2O)c1ccc(O)c(c1)-c1c(O[C@H]2O[C@H](CO)[C@@H](O)[C@H](O)[C@@H]2O)cc(O)cc1[C@@H](C(=O)NCCCN(C)C)NC3=O [Dalbavancin] , field AUC: 6860 µg·h/mL

---

# Procedure details: Pharmacokinetics and safety in subjects with hepatic impairment (VER001-12)
# Conditions used: human, in vivo, intravenous, t1/2, Severe Hepatic Impairment (N = 5); 1000 mg Day 1 and 500 mg Day 8; Mean (±SD)
Readout: half-life (days)
Your answer is read as days, so omit the unit and give the number.

// half-life value for CN[C@H]1C(=O)N[C@@H]2Cc3ccc(cc3)Oc3cc4cc(c3O[C@@H]3O[C@H](C(=O)O)[C@@H](O)[C@H](O)[C@H]3NC(=O)CCCCCCCCC(C)C)Oc3ccc(cc3Cl)[C@@H](O)[C@@H]3NC(=O)[C@H](NC(=O)[C@@H]4NC(=O)[C@@H](NC2=O)c2cc(cc(O)c2Cl)Oc2cc1ccc2O)c1ccc(O)c(c1)-c1c(O[C@H]2O[C@H](CO)[C@@H](O)[C@H](O)[C@@H]2O)cc(O)cc1[C@@H](C(=O)NCCCN(C)C)NC3=O : 13.4
